Values compiled from patent US20120316157A1.

# System: gray mold fungus (Botrytis cinerea)
# methodNotes: Cucumber leaf disk preventive test against gray mold fungus (Test Examples 1, 2 and Reference Example)
# Format: in vivo
# conditionNotes: heterocyclic compound alone, 0.5 ppm, 15° C., four days
quantityName: preventive value (%)
Answers are plain numbers, in %.

Answered examples (3):
Notebook: Cc1c(Br)c2ccc(F)cc2n1S(=O)(=O)c1ncn(S(=O)(=O)N(C)C)n1 [amisulbrom] , preventive value (%) read as 10

For reference, reported preventive value (%) for CSC(=O)c1cccc2nnsc12 [acibenzolar-S-methyl] stands at 15

Notebook: CC(Oc1ccc(Cl)cc1Cl)C(=O)NC(C)(C#N)C(C)C (stereo not shown) [fenoxanil] , preventive value (%) read as 10

Below: the item to evaluate.
Entry CCCOc1nc2ccc(I)cc2c(=O)n1CCC [proquinazid] — recorded preventive value (%) = 10
